The values you see were collected from paper PMC5540273.

Tested on: CAMK2D;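 also: KINOMEscan kinase panel screen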
Conditions: concentration: 1 μM, replicates: in singlicate; n = 1
# if value of %Inh reaches 4%, tag y; if it stays below, tag n

| compound | class_name |
| --- | --- |
| O=C(NC1CCN(c2ccnc(Nc3ccc(F)cc3)n2)C1)c1cc2ccccc2s1 (stereo not shown) [GSK1379716] | y |
| CN1CCN(CCCNc2nccc(-c3c(-c4ccc(F)cc4)nn4cc(C(F)(F)F)ccc34)n2)CC1 [GW621581] | n |
| c1ccc(Oc2ccc(Nc3ccnc4cc(-c5ccc(CNCCN6CCOCC6)o5)ccc34)cc2)nc1 [GW567145] | n |
| CN(C)S(=O)(=O)c1cc(-c2ccc3nccc(-c4cccc(S(N)(=O)=O)c4)c3c2)cnc1N [GSK1669921] | n |
| c1ccc(-c2cnc3nccnn23)cc1 [AH20685] | n |
| COc1cc(Nc2nccc(N3CCC(NC(=O)Nc4cccc(C(C)=O)c4)C3)n2)cc(OC)c1OC (stereo not shown) [GSK1379753] | n |
| O=C(Nc1cccc(Oc2ccc3nc(NC(=O)C4CC4)cn3n2)c1)c1ccccc1C(F)(F)F | n |
| O=C(O)C(F)(F)F.O=C(O)C(F)(F)F.O=c1[nH]ccc2nc(N[C@@H]3CCCNC3)nc(Nc3ccc(S(=O)(=O)N4CCOCC4)cc3)c12 [GSK2177277] | y |
| C[C@@H](Oc1cc(-n2cnc3cc(-c4ccnc(NCCS(C)(=O)=O)c4)ccc32)sc1C(N)=O)c1ccccc1Cl [GSK907232] | y |
